Molecular target: MOS1 transposase (MBP-MOS1) (Drosophila mauritiana, UniProt Q7JQ07)
Construct: made in house
Sequence (Q7JQ07 whole entry): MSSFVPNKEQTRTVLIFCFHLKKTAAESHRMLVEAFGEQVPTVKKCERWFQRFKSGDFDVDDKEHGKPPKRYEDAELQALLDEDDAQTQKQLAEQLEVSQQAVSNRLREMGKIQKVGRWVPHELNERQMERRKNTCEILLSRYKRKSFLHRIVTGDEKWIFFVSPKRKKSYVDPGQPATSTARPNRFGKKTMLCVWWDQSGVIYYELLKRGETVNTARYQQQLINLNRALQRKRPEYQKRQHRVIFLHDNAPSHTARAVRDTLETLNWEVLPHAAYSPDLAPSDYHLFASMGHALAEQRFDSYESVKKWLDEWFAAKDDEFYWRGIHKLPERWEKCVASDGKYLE
Assay: In vitro transposition test
Assay type: biochemical
Details: 80 μM compound; mean of at least five experiments
Experimental: The in vitro transposition reactions were carried out using pBC-3T3 both as the donor DNA and as the target, as was carried out previously for transposition tests in bacteria (16). The transposition reaction mixtures contained 10 mM of Tris-HCl (pH 9), 50 mM of NaCl, 0.5 mM of dithiothreitol, 20 mM of MgCl2, 0.5 mM of EDTA, 100 ng of BSA, 80 nM of MBP-MOS1 and 600 ng of supercoiled pBC-3T3 in a volume of 20 μl. […] The transformation efficacy was monitored from the number of Amp® colonies. […]
A collection of compounds and their measured Transposition frequencies

compound: O=C(O)c1ccc(C2=C(c3ccc(C(=O)O)o3)C(=O)N(c3ccc(O)cc3)C2=O)o1 [Compound 2]
Transposition frequencies: 1.2 × 10^−6
--
compound: O=C(Nc1ccccc1C(=O)O)c1cccc(NC(=O)C(c2ccccc2)c2ccccc2)c1 [Compound 9, reference compound]
Transposition frequencies: 1.64 × 10^−5
--
compound: COc1cccc(OCCOc2cccc(CC3SC(=S)NC3=O)c2)c1 (stereo not shown) [Compound 8, reference compound]
Transposition frequencies: 5.04 × 10^−6

[ask] What value of Transposition frequencies has been recorded for this entry: O=C/C=C/c1ccc(C2=C(c3ccc(/C=C/C=O)o3)C(=O)N(Cc3ccccc3)C2=O)o1 [Compound 4]
[reply] 5.37 × 10^−6

All values here come from patent US20110124703A1.
